Tested on: SK-MEL-28 melanoma
Assay: NCI-60 one-dose screen, 48 h (100 = growth as untreated, 0 = no growth, -100 = all killed)
Details: 10 µM unless noted
Compounds without any hit were thinned out: in the full panel of roughly 83,000, 20% have a hit.
Each record here notes measured growth.
Kindly provide the numeric value in % only, without the unit symbol.

Below, each entry is followed by its recorded growth result.
Molecule	Unit spec	growth
COc1cc(/C=N/NC(=O)c2ccc(OCc3nc4ccc(Cl)cc4[nH]3)cc2)cc(OC)c1OC	%	32.4
CS(=O)(=O)Nc1cc(-c2ccc3ncnc(N4CCc5cc(F)c(Cl)cc54)c3c2)cnc1Cl	%	-0.47
CCc1ccccc1NC(=O)N/C(N)=N/c1nc2ccccc2s1	%	38
Cc1ccc(C(=O)Nc2ccc(-n3ccnc3)c(C(F)(F)F)c2)cc1C#Cc1cnc2cccnn12	%	-10.8
Cc1ccc(C2CC(c3ccc(NC(=S)Nc4ccccc4)cc3)=NN2c2ccc(S(N)(=O)=O)cc2)cc1 (stereo not drawn)	%	-57.7

# query: growth of entry COC(=O)c1c(C(=O)OC)c2c3ccccc3c3ccccc3n2c1C(=O)C(C)(C)C
92.5

# query: growth of entry COc1ccc(N=Nc2c(N)nn3c(N)c(C#N)c(-c4ccccc4)nc23)cc1
66.6

# query: growth of entry O=C(CSc1nc2sc3c(c2c(=O)n1-c1ccc(Cl)cc1)CCCC3)N/N=C/C=C/c1ccccc1
-80.1

# query: growth of entry ClC(Cn1ncc2c(Nc3cccc(Br)c3)nc(SCCN3CCOCC3)nc21)c1ccc(Br)cc1 (stereo not drawn)
-46.4

# query: growth of entry COc1ccc(N=Nc2c(N)nn3c(-c4cc5cc(Br)ccc5oc4=O)ccnc23)cc1
28.8

# query: growth of entry COc1ccc2[nH]c(=O)c(CSc3ccccc3Nc3nccc(-c4ccc(Cl)cc4)n3)cc2c1
74.1

# query: growth of entry CCOC(=O)/C(F)=C/C1CC1C(c1ccccc1)c1ccccc1 (stereo not drawn)
103

# query: growth of entry COC(=O)c1c(C(=O)OC)c2ccc3c4ccccc4ccc3n2c1C(=O)C(C)Br (stereo not drawn)
65.4

# query: growth of entry CCOc1ccccc1[C@H]1C(C(=O)c2ccc(Cl)cc2)C2(N[C@@H]1c1ccccc1)C(=O)Nc1ccc(Cl)cc12 (stereo partly drawn)
41.2

# query: growth of entry CNS(=O)(=O)N1CCc2c(Br)c3c(c(OC)c2C1CCc1ccccc1)OCO3 (stereo not drawn)
-77.9

# query: growth of entry Cc1ccc(N=Nc2c(N)nn3c(-c4cc5cc(Br)ccc5oc4=O)ccnc23)cc1
110

# query: growth of entry O=C1/C(=C/c2cccc3c2OCO3)Cc2c(F)cc(Br)cc21
115

# query: growth of entry COc1ccc(NC(=O)CSc2nnc(-c3ccc(-c4nc5ccc(Cl)cc5[nH]4)cc3)o2)cc1
-76
